# experimental_protocol: inhibition of 3D7 malaria parasite growth – strain 3D7 (AID 2306);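 further: 0% = DMSO wells and 100% = chloroquine plus artemisinin control wells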
# experimental_conditions: P. falciparum 3D7 erythrocytic growth, LDH absorbance, 72 h; at 2 µM; hits give high values
attribute_measured: growth inhibition (%)

{"molecule": "Cc1cccc(Nc2nccc(Nc3cccc(C(=O)NCCN4CCOCC4)c3)n2)c1", "data_value": 91}
{"molecule": "Cc1cccc2[nH]c(-c3ccc(-c4cccc(CN5CCCCC5)c4)s3)nc12", "data_value": 100}
{"molecule": "COCCOc1cccc(CN2CCC(c3cc4nc(C)cc(C(F)(F)F)n4n3)C2)c1 (configuration not stated)", "data_value": 85}
{"molecule": "N#Cc1ccc(CN2CCC(Oc3ccc(NC(=O)c4cccs4)cc3Cl)C2)cc1 (configuration not stated)", "data_value": 96}
{"molecule": "CC1(CCCCN2CCC(Oc3ccc(F)cc3F)CC2)C(=O)Nc2ccccc21 (configuration not stated)", "data_value": 99}
{"molecule": "COc1ccc(C(=O)Nc2ccc3nc(N4CCCCC4)cc(C)c3c2)cc1OC", "data_value": 92}
{"molecule": "COc1ccc2nccc([C@@H](O)CN3CC[C@H](NCc4nc5c(cc4Cl)OCC(=O)N5)[C@H](F)C3)c2c1", "data_value": 84}

* * *

A collection of molecules and their measured inhibition
# tested_target: L-lactate dehydrogenase (Plasmodium falciparum (isolate CDC / Honduras)) (UniProt Q27743)
# Sequence (Q27743 whole entry, looked up): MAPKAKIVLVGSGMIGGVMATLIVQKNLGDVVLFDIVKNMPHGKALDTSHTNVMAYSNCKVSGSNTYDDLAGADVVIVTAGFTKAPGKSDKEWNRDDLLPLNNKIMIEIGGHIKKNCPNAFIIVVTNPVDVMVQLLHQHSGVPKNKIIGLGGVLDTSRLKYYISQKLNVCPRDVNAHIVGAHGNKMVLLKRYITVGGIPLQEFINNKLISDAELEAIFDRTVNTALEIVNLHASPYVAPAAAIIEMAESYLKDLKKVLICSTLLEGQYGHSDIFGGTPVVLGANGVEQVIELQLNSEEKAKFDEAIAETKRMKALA
# experimental_protocol: PfLDH activity inhibition – cell lysate, 3D7 strain, counter-screen for P. falciparum growth inhibition project (AID 2304);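 further: 0% = vehicle and 100% = reference inhibitor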
# experimental_conditions: P. falciparum 3D7 crude extract, LDH APAD/NBT absorbance; at 2 µM; hits give high values
attribute_measured: inhibition (%)

{"chemical_structure": "O=[N+]([O-])c1cccc(CNCC2CCN(Cc3ccc(-c4ccccc4)cc3)CC2)c1", "data_value": 6}
{"chemical_structure": "CCN(CCCN1CCCCC1)c1cc(C)nc(Nc2cccc(OC(F)(F)F)c2)n1", "data_value": -2}
{"chemical_structure": "Cc1cc(NCCc2ccccc2)nc(/N=C(\\N)Nc2cccc([N+](=O)[O-])c2)n1", "data_value": -2}
{"chemical_structure": "CN(C)CCCc1cc2c(cc1Cl)CCN2C(=O)Nc1ccc(-c2ccncc2)c2ccccc12", "data_value": -2}

* * *

# tested_target: L-lactate dehydrogenase (Plasmodium falciparum (isolate CDC / Honduras))
# experimental_protocol: PfLDH activity inhibition – cell lysate, 3D7 strain, counter-screen for P. falciparum growth inhibition project (AID 2304);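 further: 0% = vehicle and 100% = reference inhibitor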
# experimental_conditions: P. falciparum 3D7 crude extract, LDH APAD/NBT absorbance; at 2 µM; hits give high values
A collection of compounds and their measured inhibition

{"compound": "COC(=O)[C@@H](NC(=O)[C@@H](Nc1ccc(C#N)c2ccccc12)C(C)(C)C)c1ccc(O)cc1", "inhibition [%]": 1}
{"compound": "O=C(NCCc1ccc(Cl)c(Cl)c1)[C@@H]1CCCN1C(=O)c1ccc(O)c(-c2cccc(C(F)(F)F)c2)c1", "inhibition [%]": -7}
{"compound": "COC(=O)c1ccc(C(=O)NCCCCN2CCC(c3ccc4c(c3OC)CCCC4)CC2)cc1-c1ccc(C(F)(F)F)cc1", "inhibition [%]": 2}
{"compound": "CCOc1ccc2c(NN=Cc3ccc(OC)c(OC)c3)cc(C)nc2c1", "inhibition [%]": 2}
{"compound": "Cc1ccccc1C1CCN(C2CCC(NC(=O)/C=C/c3cccc(Cl)c3Cl)CC2)CC1 (configuration not stated)", "inhibition [%]": 2}
{"compound": "CC(C)CC(NC(=O)c1cc2ccccc2s1)C(=O)N1CCCCCC1c1ccc(C(C)(C)C)cc1 (configuration not stated)", "inhibition [%]": -2}
{"compound": "COc1cc2nc(C)nc(Nc3ccc(Cc4ccccc4)cc3)c2cc1OC", "inhibition [%]": -1}
{"compound": "CCCCOc1cc(CNCCCCCCNCc2cc(OCCCC)cc3ccccc23)c2ccccc2c1", "inhibition [%]": -5}
{"compound": "COc1ccc(CNCc2ccccc2)cc1-c1ccc(OC)c(S(=O)(=O)NCCN2CCCC2)c1", "inhibition [%]": -5}
{"compound": "O=C(CN1CCC2(CCC1=O)CC(=O)c1ccccc1O2)NCCN1CCOCC1 (configuration not stated)", "inhibition [%]": -4}
{"compound": "COc1ccc2nccc([C@@H](O)CN3CCC(NCc4cc5cccc(OC)c5o4)CC3)c2c1", "inhibition [%]": -8}
{"compound": "C=CCc1cc(Cc2cnc(N)nc2N)cc(CCC)c1OC", "inhibition [%]": 0}
{"compound": "O=C(Nc1ccc2c(c1)CCN2C1CCN(Cc2ccc(C(F)(F)F)cc2F)C1)c1ccco1 (configuration not stated)", "inhibition [%]": 1}
{"compound": "N#Cc1cccc(CN2CCCN(c3ccc(NC(=O)c4cccs4)cc3)CC2)c1", "inhibition [%]": -2}
{"compound": "COc1ccc2c(C)cc(NCCCN(C)C)nc2c1", "inhibition [%]": 3}
{"compound": "CN(C)C(CNC(=O)c1cc(-c2ccncc2)c(-c2ccc(NC(=O)Nc3ccccc3)cc2)o1)c1ccccc1 (configuration not stated)", "inhibition [%]": 4}
{"compound": "CN1CCN(c2ccnc3ccc(NC(=O)Nc4cccc5c(C#N)cccc45)cc23)CC1", "inhibition [%]": 8}
{"compound": "CC(C)n1ncc2c(C(=O)N3CCCCCC3)cc(-c3ccccc3)nc21", "inhibition [%]": 2}
{"compound": "O=C(NCCCN1CCCC1=O)NCc1ccccc1", "inhibition [%]": 3}
{"compound": "CCC1CCc2cc(N)cc(-c3nc4c(c(C)nn4CC)c(=O)[nH]3)c2O1 (configuration not stated)", "inhibition [%]": -4}
{"compound": "CC(=O)Nc1nc(C(=O)Nc2ccc(-c3cccc(-c4nc5c(C)cccc5[nH]4)c3)cc2)cs1", "inhibition [%]": -4}
{"compound": "CCC(CCON1C(N)=NC(N)=NC1(C)C)c1ccc(Cl)c(Cl)c1 (configuration not stated)", "inhibition [%]": -7}
{"compound": "O=S(=O)(NCCN1CCCC1)c1ccc(-c2ccccc2CNC2Cc3ccccc3C2)cc1", "inhibition [%]": -9}
{"compound": "CN1CCCN(Cc2ccc(-c3cccc(NC(=O)c4ccc(Cl)cc4)c3)cc2)CC1", "inhibition [%]": -4}
{"compound": "COc1ccc(C2C(C(=O)Nc3cc(Cl)c(OC)cc3OC)c3ccccc3C(=O)N2C)cc1 (configuration not stated)", "inhibition [%]": 4}
{"compound": "COc1ccc(Nc2nc(N3CCCC3)c3ccccc3n2)cc1", "inhibition [%]": 2}
{"compound": "CCN(CC)CCOc1c(Cl)cc(Cl)cc1CNCCCNc1cc(=O)c2ccccc2[nH]1", "inhibition [%]": -1}
